Overview of recorded IC50 for various compounds
Tested on: Sertoli cells (TM4)
Assay: cells
Format: cell-based, mouse
Details: Mus musculus, 48 h
assay_readout: IC50

compound=OB(O)O target_under_test="Sertoli cells (TM4)" result="> 5 mM"
compound="O=P1(N(CCCl)CCCl)NCCCO1 (centres unmarked) [CYC, Cyclophosphamide]" target_under_test="Sertoli cells (TM4)" result="> 5 mM"

* * *

System: Spermatogonial cells (C18-4)
Experiment: cells
Type: cell-based, mouse
Conditions: Spermatogonial Cell, 48 h; highest concentration tested assigned as IC50 where viability did not decrease 50%; read-out: IC50
assay_readout: IC50 (µM)

molecule="[Cl][Cd][Cl] [Cd, Cadmium chloride]" assay_readout=IC50 value_units=µM number=2.1
molecule="CCCCCOC(=O)c1ccccc1C(=O)OCCCCC [DPP]" assay_readout=IC50 value_units=µM number=372
molecule="Oc1cc(Cl)ccc1Oc1ccc(Cl)cc1Cl [TCS]" assay_readout=IC50 value_units=µM number=57.3
molecule="NC(=O)NO [HU]" assay_readout=IC50 value_units=µM number=300

* * *

Tested on: testicular co-culture: spermatogonial cells (C18-4), Sertoli cells (TM4), Leydig cells (TM3)
Assay: cells
Details: Mus musculus, 48 h
pIC50: −log10 of the molar value.
assay_readout: pIC50

compound=CCOP(=S)(OCC)Oc1nc(Cl)c(Cl)cc1Cl reading_qualifier== number=4.05
compound=O=S(=O)(c1ccc(O)cc1)c1ccc(O)cc1 reading_qualifier== number=3.47
compound=CC(C)(c1ccc(O)cc1)c1ccc(O)cc1 reading_qualifier== number=3.73
compound="CCCC(CCC)C(=O)[O-].[Na+] [VPA, Valproic acid sodium salt]" reading_qualifier== number=2.05
compound=Oc1ccc(C(c2ccc(O)cc2)(C(F)(F)F)C(F)(F)F)cc1 reading_qualifier== number=4.30
compound="CCCCOC(=O)c1ccccc1C(=O)OCCCC [DBP, Dibutyl phthalate]" reading_qualifier== number=3.41
compound=C[C@H]1CCCC(=O)CCC/C=C/c2cc(O)cc(O)c2C(=O)O1 reading_qualifier== number=5.39
compound="CCCCOC(=O)c1ccccc1C(=O)OCc1ccccc1 [BBP, Benzyl butyl phthalate]" reading_qualifier== number=3.27
compound="O=P1(N(CCCl)CCCl)NCCCO1 (stereo not drawn) [CYC, Cyclophosphamide]" reading_qualifier=< number=2.30
compound="CCOC(=O)c1ccccc1C(=O)OCC [DEP, Diethylphthalate]" reading_qualifier=< number=3.40
compound=OB(O)O reading_qualifier=< number=2.30
compound=CC(C)(c1cc(Br)c(O)c(Br)c1)c1cc(Br)c(O)c(Br)c1 reading_qualifier== number=4.24

* * *

Test system: testicular co-culture: spermatogonial cells (C18-4), Sertoli cells (TM4), Leydig cells (TM3)
Experiment: cells
Settings: Mus musculus, read-out: IC50 values (mostly)
Overview of recorded IC50 for various compounds
assay_readout: IC50

structure_string=CC(C)(c1cc(Br)c(O)c(Br)c1)c1cc(Br)c(O)c(Br)c1 assay_readout=IC50 result="≤ 100 µM"
structure_string=CCOP(=S)(OCC)Oc1nc(Cl)c(Cl)cc1Cl assay_readout=IC50 result="≤ 100 µM"
structure_string=C[C@H]1CCCC(=O)CCC/C=C/c2cc(O)cc(O)c2C(=O)O1 assay_readout=IC50 result="≤ 100 µM"

* * *

Tested on: Spermatogonial cells (C18-4)
Test: cells
Assay type: cell-based, mouse
Settings: Mus musculus, 48 h; read-out: IC50
pIC50: −log10 of the molar value.
assay_readout: pIC50

compound=O=S(=O)(c1ccc(O)cc1)c1ccc(O)cc1 target_under_test="Spermatogonial cells (C18-4)" reading_qualifier== number=3.45
compound=CCOP(=S)(OCC)Oc1nc(Cl)c(Cl)cc1Cl target_under_test="Spermatogonial cells (C18-4)" reading_qualifier== number=4.02
compound=Oc1ccc(C(c2ccc(O)cc2)(C(F)(F)F)C(F)(F)F)cc1 target_under_test="Spermatogonial cells (C18-4)" reading_qualifier== number=4.23
compound="CCCC(CCC)C(=O)[O-].[Na+] [VPA, Valproic acid sodium salt]" target_under_test="Spermatogonial cells (C18-4)" reading_qualifier== number=2.22
compound="CCCCOC(=O)c1ccccc1C(=O)OCc1ccccc1 [BBP, Benzyl butyl phthalate]" target_under_test="Spermatogonial cells (C18-4)" reading_qualifier=≤ number=3.40
compound=CC(C)(c1cc(Br)c(O)c(Br)c1)c1cc(Br)c(O)c(Br)c1 target_under_test="Spermatogonial cells (C18-4)" reading_qualifier== number=4.26
compound=CC(C)(c1ccc(O)cc1)c1ccc(O)cc1 target_under_test="Spermatogonial cells (C18-4)" reading_qualifier== number=3.73
compound=C[C@H]1CCCC(=O)CCC/C=C/c2cc(O)cc(O)c2C(=O)O1 target_under_test="Spermatogonial cells (C18-4)" reading_qualifier== number=5.70
compound="CCOC(=O)c1ccccc1C(=O)OCC [DEP, Diethylphthalate]" target_under_test="Spermatogonial cells (C18-4)" reading_qualifier=< number=3.40
compound="CCCCOC(=O)c1ccccc1C(=O)OCCCC [DBP, Dibutyl phthalate]" target_under_test="Spermatogonial cells (C18-4)" reading_qualifier== number=3.43

* * *

Overview of recorded CC50 at 72 h for various compounds
Test: NR dye uptake assay, co-cultures treated with BPA and analogs (Example 2)
Conditions: mouse
assay_readout: CC50 at 72 h (µM)

compound="CC(C)(c1ccc(O)cc1)c1ccc(O)cc1 [BPA, 4,4′-(propane-2,2-diyl) diphenol]" value_units=µM number=150
compound="CC(C)(c1cc(Br)c(O)c(Br)c1)c1cc(Br)c(O)c(Br)c1 [TBBPA]" value_units=µM number=16.8
compound="Oc1ccc(C(c2ccc(O)cc2)(C(F)(F)F)C(F)(F)F)cc1 [BPAF, 4,4′-(Hexafluoroisopropylidene)diphenol]" value_units=µM number=8.5

* * *

Test system: testicular co-culture: spermatogonial cells (C18-4), Sertoli cells (TM4), Leydig cells (TM3)
Assay: cells
Details: Mus musculus, 24 h
assay_readout: log10 of IC50 (log10 of the value in µM)

molecule=Oc1ccc(C(c2ccc(O)cc2)(C(F)(F)F)C(F)(F)F)cc1 assay_readout="log10 of IC50" number=1.89
molecule="CCCCOC(=O)c1ccccc1C(=O)OCc1ccccc1 [BBP, Benzyl butyl phthalate]" assay_readout="log10 of IC50" number=2.95
molecule=CCOP(=S)(OCC)Oc1nc(Cl)c(Cl)cc1Cl assay_readout="log10 of IC50" number=1.96
molecule=O=S(=O)(c1ccc(O)cc1)c1ccc(O)cc1 assay_readout="log10 of IC50" number=2.76
molecule=C[C@H]1CCCC(=O)CCC/C=C/c2cc(O)cc(O)c2C(=O)O1 assay_readout="log10 of IC50" number=0.86
molecule=CC(C)(c1ccc(O)cc1)c1ccc(O)cc1 assay_readout="log10 of IC50" number=2.32
molecule="CCCCOC(=O)c1ccccc1C(=O)OCCCC [DBP, Dibutyl phthalate]" assay_readout="log10 of IC50" number=2.64

* * *

System: Leydig cells (TM3)
Experiment: cells
Assay type: cell-based, mouse
Conditions: Mus musculus, Leydig, 24 h; read-out: IC50
assay_readout: IC50 (µM)

molecule=O=S(=O)(c1ccc(O)cc1)c1ccc(O)cc1 target_under_test="Leydig cells (TM3)" assay_readout=IC50 reading_qualifier== number=435
molecule="CCOC(=O)c1ccccc1C(=O)OCC [DEP, Diethylphthalate]" target_under_test="Leydig cells (TM3)" assay_readout=IC50 reading_qualifier=> number=400
molecule="CCCC(CCC)C(=O)[O-].[Na+] [VPA, Valproic acid sodium salt]" target_under_test="Leydig cells (TM3)" assay_readout=IC50 reading_qualifier=> number=20000
molecule="CCCCOC(=O)c1ccccc1C(=O)OCc1ccccc1 [BBP, Benzyl butyl phthalate]" target_under_test="Leydig cells (TM3)" assay_readout=IC50 reading_qualifier=≥ number=400
molecule=CC(C)(c1ccc(O)cc1)c1ccc(O)cc1 target_under_test="Leydig cells (TM3)" assay_readout=IC50 reading_qualifier== number=88
molecule=CC(C)(c1cc(Br)c(O)c(Br)c1)c1cc(Br)c(O)c(Br)c1 target_under_test="Leydig cells (TM3)" assay_readout=IC50 reading_qualifier== number=70
molecule="CCCCOC(=O)c1ccccc1C(=O)OCCCC [DBP, Dibutyl phthalate]" target_under_test="Leydig cells (TM3)" assay_readout=IC50 reading_qualifier=≥ number=400
molecule=C[C@H]1CCCC(=O)CCC/C=C/c2cc(O)cc(O)c2C(=O)O1 target_under_test="Leydig cells (TM3)" assay_readout=IC50 reading_qualifier== number=3.4
molecule=CCOP(=S)(OCC)Oc1nc(Cl)c(Cl)cc1Cl target_under_test="Leydig cells (TM3)" assay_readout=IC50 reading_qualifier== number=142
molecule=Oc1ccc(C(c2ccc(O)cc2)(C(F)(F)F)C(F)(F)F)cc1 target_under_test="Leydig cells (TM3)" assay_readout=IC50 reading_qualifier== number=30

* * *

Test system: testicular co-culture: spermatogonial cells (C18-4), Sertoli cells (TM4), Leydig cells (TM3)
Conditions: Co-culture, 24 h; highest concentration tested assigned as IC50 where viability did not decrease 50%
Overview of recorded IC50 for various compounds
assay_readout: IC50

compound=Oc1cc(Cl)ccc1Oc1ccc(Cl)cc1Cl result="121 µM"
compound=CCCCCOC(=O)c1ccccc1C(=O)OCCCCC result="550 µM"
compound="[Cl][Cd][Cl] [Cd, Cadmium chloride]" result="11.3 µM"
